molecular target: PLK4 (h) (Homo sapiens, UniProt O00444); test: PLK-4 human kinase scintillation proximity assay (SPA); assay type: biochemical; conditions: 1 μM ATP, 60 minutes at r.t., read-out: PLK4 pIC50 (converted)
Sequence (O00444 whole entry): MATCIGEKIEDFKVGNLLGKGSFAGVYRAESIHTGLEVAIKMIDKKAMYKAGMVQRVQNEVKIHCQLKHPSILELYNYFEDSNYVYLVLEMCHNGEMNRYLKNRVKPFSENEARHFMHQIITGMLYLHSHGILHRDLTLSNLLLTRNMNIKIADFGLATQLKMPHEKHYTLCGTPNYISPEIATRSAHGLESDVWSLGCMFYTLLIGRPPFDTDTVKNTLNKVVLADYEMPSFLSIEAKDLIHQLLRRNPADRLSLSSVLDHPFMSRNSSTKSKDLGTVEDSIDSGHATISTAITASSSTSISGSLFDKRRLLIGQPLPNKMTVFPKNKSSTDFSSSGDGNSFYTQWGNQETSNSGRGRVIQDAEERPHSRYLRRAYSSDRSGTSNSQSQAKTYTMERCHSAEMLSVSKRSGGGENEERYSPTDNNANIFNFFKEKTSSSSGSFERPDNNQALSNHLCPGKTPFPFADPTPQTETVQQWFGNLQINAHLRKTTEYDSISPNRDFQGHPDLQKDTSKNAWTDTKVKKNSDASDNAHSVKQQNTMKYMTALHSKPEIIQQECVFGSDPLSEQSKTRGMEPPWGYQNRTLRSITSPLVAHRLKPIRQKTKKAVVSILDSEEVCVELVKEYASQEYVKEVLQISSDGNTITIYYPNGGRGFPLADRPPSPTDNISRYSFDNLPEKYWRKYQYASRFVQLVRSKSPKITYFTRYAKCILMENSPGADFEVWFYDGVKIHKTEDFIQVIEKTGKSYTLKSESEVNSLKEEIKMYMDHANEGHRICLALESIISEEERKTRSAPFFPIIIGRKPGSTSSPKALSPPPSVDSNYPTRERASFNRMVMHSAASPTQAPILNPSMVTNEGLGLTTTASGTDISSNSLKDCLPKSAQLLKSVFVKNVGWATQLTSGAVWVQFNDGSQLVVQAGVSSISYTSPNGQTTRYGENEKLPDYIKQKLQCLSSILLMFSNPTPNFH
Value kind: log10 IC50 (log10 of the value in µM)
Could you please treat all values as log10 of IC50 in µM?

Take a look at these entries with their results.
Compound	log10 IC50
CN1CCN(C)C(=O)CCc2cccc(c2)Nc2ncnc3[nH]cc(c23)C1	-0.20
CN1CCN(c2ccc3cc2OCC(=O)N(C)CCCN(C)Cc2c[nH]c4ncnc(c24)N3)CC1	-0.70
CN1CCN(c2ccc3cc2OCCCC(=O)N(C)CCN(C)Cc2c[nH]c4ncnc(c24)N3)CC1	0.70
CN1CCCN(C)C(=O)COc2cc(ccc2OCCOC2CCCC2)Nc2ncnc3[nH]cc(c23)C1	-1.60

Exercise: Endpoint output: log10 IC50 of "COc1cc2cc(c1OC)CCC(=O)N(C)CCN(C)Cc1c[nH]c3ncnc(c13)N2" . Value?
Key: 0.80

Exercise: Now consider "COc1ccc2cc1OCCCCC(=O)N(C)CCCN(C)Cc1c[nH]c3ncnc(c13)N2" .
Key: -0.90

---

system: A2780; assay: Cellular proliferation assay (Alamar blue), A2780; type: cell-based; conditions: Homo sapiens, A2780, A2780 cells; 10% FCS; 72 h with compound; Alamar blue 24 h; read-out: pIC50 A2780 (converted)
# IC50 values compiled below
# unit: nM | format: bare number

Smiles	Assay system	Unit tag	Measured
CN1CCCN(C)C(=O)COc2cc(ccc2OCC(=O)NC2CCCC2)Nc2ncnc3[nH]cc(c23)C1	A2780	nM	794
CN1CCCN(C)C(=O)COc2cccc(c2)Nc2ncnc3[nH]cc(c23)C1	A2780	nM	501
CN1CCCN(C)C(=O)COc2cc(ccc2OCCOc2ccc(Cl)cc2)Nc2ncnc3[nH]cc(c23)C1	A2780	nM	39.8
CCOCCOc1ccc2cc1OCC(=O)N(C)CCCN(C)Cc1c[nH]c3ncnc(c13)N2	A2780	nM	79.4

Exercise: Endpoint output: IC50 of "CN1CCCN(C)C(=O)COc2cc(ccc2Cl)Nc2ncnc3[nH]cc(c23)C1" . Value?
Key: 3980

Exercise: Now consider "COc1ccc(NC(=O)COc2ccc3cc2OCC(=O)N(C)CCCN(C)Cc2c[nH]c4ncnc(c24)N3)cc1" .
Key: 63.1

Exercise: Now consider "CN1CCCN(C)C(=O)COc2cc(ccc2OCCCN2CCOCC2)Nc2ncnc3[nH]cc(c23)C1" .
Key: 794

Exercise: Now consider "COCCOc1ccc2cc1OCC(=O)N(C)CCCN(C)Cc1c[nH]c3ncnc(c13)N2" .
Key: 316

---

# IC50 values compiled below
tested on: A2780; assay: Cellular proliferation assay (Alamar blue), A2780; type: cell-based; details: Homo sapiens, A2780, A2780 cells; 10% FCS; 72 h with compound; Alamar blue 24 h; read-out: pIC50 A2780 (converted)
# unit: nM | format: bare number

Take a look at these entries with their results.
Smiles	Unit tag	Measured
CCN(CCOC)CCOc1ccc2cc1OCC(=O)N(C)CCCN(C)Cc1c[nH]c3ncnc(c13)N2	nM	2510
CCOCCOc1ccc2cc1OCC(=O)N(C)CCCN(C)Cc1c[nH]c3nc(C)nc(c13)N2	nM	2510
COCCCOc1ccc2cc1OCC(=O)N(C)CCCN(C)Cc1c[nH]c3ncnc(c13)N2	nM	1260
CN1CCCN(C)C(=O)COc2cc(ccc2NC(=O)NCC2CC2)Nc2ncnc3[nH]cc(c23)C1	nM	5010
CN1CCCN(C)C(=O)COc2cc(ccc2OC(F)F)Nc2ncnc3[nH]cc(c23)C1	nM	794
COc1ccc(OCCOc2ccc3cc2OCC(=O)N(C)CCCN(C)Cc2c[nH]c4ncnc(c24)N3)cc1	nM	31.6
CN1CCCN(C)C(=O)COc2cc(ccc2NC(=O)Nc2ccc(Cl)cc2)Nc2ncnc3[nH]cc(c23)C1	nM	79.4
COCCOc1ccc2cc1OCC(=O)N(C)CCCNCc1c[nH]c3ncnc(c13)N2	nM	631
CCCOc1ccc2cc1OCC(=O)N(C)CCCN(C)Cc1c[nH]c3ncnc(c13)N2	nM	1580
CN1CCCCN(C)C(=O)COc2cc(ccc2OCC(=O)Nc2ccc(Cl)cc2)Nc2ncnc3[nH]cc(c23)C1	nM	63.1

Exercise: # returns recorded IC50 (system: A2780) for "CN1CCCN(C)C(=O)COc2cc(ccc2OCCN2CCCCC2)Nc2ncnc3[nH]cc(c23)C1"
Key: 1000

Exercise: Now consider "CN1CCCN(C)C(=O)COc2cc(ccc2N2CCCC2)Nc2ncnc3[nH]cc(c23)C1" .
Key: 2000

Exercise: Now consider "CN1CCCN(C)C(=O)COc2cc(ccc2OCC2CC2)Nc2ncnc3[nH]cc(c23)C1" .
Key: 631

Exercise: Now consider "COc1ccc2cc1OCC(=O)N(C)CCCN(C)Cc1c[nH]c3ncnc(c13)N2" .
Key: 631

Exercise: Now consider "CCOCCOc1ccc2cc1OCC(=O)N(C)CCCNCc1c[nH]c3ncnc(c13)N2" .
Key: 631

Exercise: Now consider "CN1CCCN(C)C(=O)COc2cc(ccc2OCC2CCN(Cc3ccccc3)CC2)Nc2ncnc3[nH]cc(c23)C1" .
Key: 316
